# method.notes: BSK_3C_Proliferation: Cell Proliferation Assessment in the BioMAP Diversity Plus: 3C Assay (AID 2283006);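 on AC50: potency may reflect either rise or fall in cell number versus DMSO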
# experimental.context: primary human endothelial cells (HUVEC)
The source made the active and inactive calls. How the source made its calls: active means hit-call score of the fitted dose curve at least 0.9, where 1 is the maximum; inactive means score below 0.9.

- compound: "CC(C)Cc1ccc(C(C)C(=O)O)cc1 (stereo unspecified)"
  AC50: "inactive"
- compound: "O=C(O)C(F)(F)C(F)(F)C(F)(F)C(F)(F)C(F)(F)C(F)(F)C(F)(F)C(F)F"
  AC50: "inactive"
- compound: "C=CC(=O)OCC(CO)(COC(=O)C=C)COC(=O)C=C"
  AC50: "131 nM (active)"
- compound: "NC(=O)c1c(Cl)cccc1Cl"
  AC50: "inactive"
- compound: "C=C(C)C(=O)OCCC(F)(F)C(F)(F)C(F)(F)C(F)(F)C(F)(F)C(F)(F)C(F)(F)C(F)(F)F"
  AC50: "inactive"
- compound: "CCOC(=O)CCCCCCCCC(=O)OCC"
  AC50: "inactive"
